biological target: HLA-A*02:12; test: IEDB peptide-MHC binding, purified MHC/competitive/fluorescence; filed as Kd, often an IC50 or EC50 that approximates it; bounds were set here for any values at or beyond the usual limits of such assays; conditions: source organism: Vibrio vulnificus YJ016
recorded endpoint: Kd

Exercise: For the sequence shown here, "DFISMYFPW" , give the reported Kd.
Solution: ≥ 20 µM

----------
molecular target: HLA-B*07:02; experiment: IEDB peptide-MHC binding, purified MHC/direct/fluorescence; filed as Kd, often an IC50 or EC50 that approximates it; bounds were set here for any values at or beyond the usual limits of such assays; conditions: source organism: Camelpox virus M-96
pKd: −log10 of the molar value.
# maps each entry to its pKd

• LEYGANYFL = ≤ 4.70

// next item, pKd requested
Exercise: For the sequence shown here, "SYVFNFHKY" , give the reported pKd.
Solution: ≤ 4.70

----------
target: HLA-B*15:09; assay: IEDB peptide-MHC binding, purified MHC/direct/fluorescence; filed as Kd, often an IC50 or EC50 that approximates it; bounds were set here for any values at or beyond the usual limits of such assays; conditions: source organism: Variola virus
pKd: −log10 of the molar value.
recorded endpoint: pKd

Some solved entries appear below for comparison.
- RYPGVMYAF: ≤ 4.70
- NTDAFSREY: ≤ 4.70

Exercise: For the sequence shown here, "VSEKYTDMY" , give the reported pKd.
Solution: ≤ 4.70

----------
target: HLA-A*23:01; assay: IEDB peptide-MHC binding, purified MHC/competitive/radioactivity; filed as Kd, often an IC50 or EC50 that approximates it; bounds were set here for any values at or beyond the usual limits of such assays; conditions: source organism: Mammarenavirus brazilense
recorded endpoint: Kd (nM)
Reply with just the number (in nM).

Exercise: For the sequence shown here, "GYKETPFLTI" , give the reported Kd.
Solution: 139

----------
molecular target: HLA-A*02:11; assay: IEDB peptide-MHC binding, purified MHC/direct/fluorescence; filed as Kd, often an IC50 or EC50 that approximates it; bounds were set here for any values at or beyond the usual limits of such assays; conditions: source organism: Ravn virus - Ravn, Kenya, 1987
recorded endpoint: Kd

Exercise: For the sequence shown here, "FPSNMMVVT" , give the reported Kd.
Solution: ≥ 20 µM

----------
molecular target: HLA-B*08:01; test: IEDB peptide-MHC binding, purified MHC/competitive/radioactivity; filed as Kd, often an IC50 or EC50 that approximates it; bounds were set here for any values at or beyond the usual limits of such assays; conditions: source organism: Dengue virus 2 Jamaica/1409/1983
recorded endpoint: Kd (µM)
Reply with just the number (in µM).

• LMMATIGIAL = 0.398
• TSKKRSWPL = 0.00582
• EARKTFVDL = 0.57

// next item, Kd requested
Exercise: For the sequence shown here, "MRGAKRMAIL" , give the reported Kd.
Solution: 0.0542

----------
molecular target: HLA-A*11:01; assay: IEDB peptide-MHC binding, purified MHC/competitive/fluorescence; filed as Kd, often an IC50 or EC50 that approximates it; bounds were set here for any values at or beyond the usual limits of such assays; settings: source organism: Variola major virus
recorded endpoint: Kd
Please state the number and follow it with the unit.

Exercise: For the sequence shown here, "RYPGVMYAF" , give the reported Kd.
Solution: 4.3 µM
